- Test system: SN12C renal
- procedure.details: NCI-60 one-dose screen, 48 h
- applied.conditions: 10 µM unless noted
This is part of a sample that, as a whole, favours compounds with a hit. Of some 83,000 tested, about 20% had one in any assay. The source made the active and inactive calls. How the source made its calls: active means growth percent below 10; inactive means the rest.
Your answer must be one of the following: YES (active), NO (inactive)

QUERY: In this assay, the call recorded for `O=C(O)c1ccccc1Nc1cccc(S(F)(F)(F)(F)F)c1` was what?
RESULT: NO

QUERY: In this assay, the call recorded for `O=c1cc(-c2ccccc2)[nH]c2ccccc12` was what?
RESULT: NO

QUERY: In this assay, the call recorded for `O=C(/C=C\c1cccc([N+](=O)[O-])c1)c1ccccc1` was what?
RESULT: NO

QUERY: In this assay, the call recorded for `O=C1c2cccnc2C(=O)c2c1c(C(=O)OCCN1CCOCC1)c1ccccn21` was what?
RESULT: YES

QUERY: In this assay, the call recorded for `CC[C@H](Nc1cc(C)nc(N)n1)c1nc2cccc(NCc3ccc(C(=O)NO)cc3)c2c(=O)n1-c1ccccc1` was what?
RESULT: NO

QUERY: In this assay, the call recorded for `COc1cc(-c2c3sc(=O)[nH]c3nc3c2c(=O)[nH]n3C(C)C)cc2c1OCO2` was what?
RESULT: NO

QUERY: In this assay, the call recorded for `O=C1C(Cl)=C(Cl)C(=O)c2c1nc1n2CCCC1` was what?
RESULT: NO

QUERY: In this assay, the call recorded for `C=C1C(=O)O[C@H]2[C@H]1CC/C(Cn1cc(Cc3c[nH]c4ccccc34)nn1)=C\CC[C@@]1(C)O[C@@H]21` was what?
RESULT: NO

QUERY: In this assay, the call recorded for `CS(=O)(=O)c1ccc(-c2cnc3ccc(-c4cccc(S(C)(=O)=O)c4)nn23)cc1` was what?
RESULT: NO

QUERY: In this assay, the call recorded for `CCN(CC)CCC(=O)Nc1ccc(Cn2nnc3c2C(=O)c2nnn(Cc4ccc(NC(=O)CCN(CC)CC)cc4)c2C3=O)cc1` was what?
RESULT: YES

QUERY: In this assay, the call recorded for `COc1cc(OC)c(/C=C/S(=O)(=O)Cc2ccc(OC)c(N)n2)c(OC)c1` was what?
RESULT: NO

QUERY: In this assay, the call recorded for C=C1CCC2C3(C)COC(c4cccc(Cl)c4)OC3CCC2(C)C1/C=C/C1=CCOC1=O (stereo not given) was what?
RESULT: NO

QUERY: In this assay, the call recorded for `COc1cc(NCCCCN=C(N)N)c2ncccc2c1` was what?
RESULT: YES

QUERY: In this assay, the call recorded for CC1=C(C)C(=O)OC([C@](C)(O)[C@]2(O)CC[C@@]3(O)[C@@H]4C[C@H]5O[C@]56CC=CC(=O)[C@]6(C)[C@H]4CC[C@]23COC(=O)c2ccc(C)o2)C1 (stereo not given in full) was what?
RESULT: YES

QUERY: In this assay, the call recorded for CCC(c1ccc(O)cc1)C(CC)c1ccc(O)c(F)c1 (stereo not given) was what?
RESULT: NO

QUERY: In this assay, the call recorded for NC(CC(=O)O)C(=O)OCc1ccccc1 (stereo not given) was what?
RESULT: NO

QUERY: In this assay, the call recorded for `CC/C=C\C[C@H](O)C/C=C1/C(=O)C=C[C@@H]1C/C=C\CCCC(N)=O` was what?
RESULT: YES

QUERY: In this assay, the call recorded for OC(c1cc(-c2ccccc2)nc2ccc(Cl)cc12)C1CCCCN1 (stereo not given) was what?
RESULT: NO

QUERY: In this assay, the call recorded for CCN(CC)CC(O)c1cc(-c2ccc(Cl)cc2)nc2c(C)c(Cl)ccc12 (stereo not given) was what?
RESULT: YES

QUERY: In this assay, the call recorded for `O=C(CCCCN1CCOCC1)Nc1ccc(Cn2nnc3c2C(=O)c2nnn(Cc4ccc(NC(=O)CCCCN5CCOCC5)cc4)c2C3=O)cc1` was what?
RESULT: YES

====

- Tested on: PC-3 prostate
- procedure.details: NCI-60 one-dose screen, 48 h
- applied.conditions: 10 µM unless noted
This is part of a sample that, as a whole, favours compounds with a hit. Of some 83,000 tested, about 20% had one in any assay. Active and inactive are the calls of the source. Rule for the calls: active = growth percent below 10; inactive = the rest.
Your answer must be one of the following: yes = active, no = inactive

QUERY: In this assay, the call recorded for O=C(CNC1C2CC3CC(C2)CC1C3)Sc1nnc2sc3ccccc3n12 (stereo unspecified) was what?
RESULT: no

QUERY: In this assay, the call recorded for CS(=O)CCCCCN=C=S (stereo unspecified) was what?
RESULT: no

QUERY: In this assay, the call recorded for `Cc1cc(Nc2nc(N3CCNCC3)nc3ccccc23)n[nH]1` was what?
RESULT: no

QUERY: In this assay, the call recorded for `Cc1ccccc1CCO` was what?
RESULT: no

QUERY: In this assay, the call recorded for `COc1cc(OC)c(/C=C/S(=O)(=O)Cc2ccc(OC)c(N)n2)c(OC)c1` was what?
RESULT: no

QUERY: In this assay, the call recorded for `C=C1C(=O)O[C@H]2[C@H]1CC/C(Cn1cc(Cn3ccc4cc(Cl)ccc43)nn1)=C\CC[C@@]1(C)O[C@@H]21` was what?
RESULT: yes

QUERY: In this assay, the call recorded for `CCOC(=O)/C=C/C(=O)[C@H](CC(C)C)NC(=O)[C@H](Cc1ccccc1)NC(=O)OCc1ccccc1` was what?
RESULT: no

QUERY: In this assay, the call recorded for C=C1CCC2C3(C)COC(c4ccccc4Br)OC3CCC2(C)C1C/C=C1/C(=O)OCC1OC(C)=O (stereo unspecified) was what?
RESULT: yes

QUERY: In this assay, the call recorded for O=C1C=CC(Nc2ccccc2[N+](=O)[O-])C1Nc1ccccc1[N+](=O)[O-] (stereo unspecified) was what?
RESULT: no

QUERY: In this assay, the call recorded for `CCN(CC)Cc1cc(Nc2c3ccc(Cl)cc3nc3c(C)cccc23)ccc1O` was what?
RESULT: yes

QUERY: In this assay, the call recorded for CCCCCCCCCCCCNC(=O)[C@H]1CSC(c2ccc(OC)c(F)c2)N1 (stereo partly specified) was what?
RESULT: yes

QUERY: In this assay, the call recorded for `CN1CCN(Cc2ccc(NC(=O)c3[nH]ncc3Nc3ncnc4c3CCC4)cc2)CC1` was what?
RESULT: yes

QUERY: In this assay, the call recorded for `Cc1ccc(S(=O)(=O)n2cc(-c3csc(-c4cn(C)c5ncccc45)n3)c3ccccc32)cc1` was what?
RESULT: no

QUERY: In this assay, the call recorded for `Cc1cc(Nc2nc(N3CCOCC3)nc3ccccc23)n[nH]1` was what?
RESULT: no

QUERY: In this assay, the call recorded for `CN1CCN(c2ccc3nc(-c4ccc5nc(-c6ccc(OCCC(C)(C)C)cc6)[nH]c5c4)[nH]c3c2)CC1` was what?
RESULT: yes

QUERY: In this assay, the call recorded for `C=C1C(=O)O[C@H]2[C@H]1CC/C(Cn1cc(Cn3ccc4ccccc43)nn1)=C\CC[C@@]1(C)O[C@@H]21` was what?
RESULT: no

QUERY: In this assay, the call recorded for C=C1CC[C@@H]2[C@](C)(COC(C)=O)[C@H](OC(C)=O)CC[C@@]2(C)[C@@H]1CC(Nc1ccc(S(=O)(=O)Nc2ccc(Cl)nn2)cc1)C1=CCOC1=O (stereo partly specified) was what?
RESULT: no

QUERY: In this assay, the call recorded for `Brc1cccc(-c2nc(-c3ccc4c(c3)OCCO4)co2)c1` was what?
RESULT: no

QUERY: In this assay, the call recorded for `COCCOc1ccc(-c2nc3ccc(-c4nc5ccc(N6CCN(C)CC6)cc5[nH]4)cc3[nH]2)cc1` was what?
RESULT: no

QUERY: In this assay, the call recorded for `CSc1nc(NCCO)c(C#N)c(-c2cccc(N)c2)n1` was what?
RESULT: no

QUERY: In this assay, the call recorded for `O=c1c2cccc3c(Nc4ccccn4)ccc(c32)c2nc3ccccc3n12` was what?
RESULT: no

QUERY: In this assay, the call recorded for `COc1ccc(CNc2nccnn2)cc1` was what?
RESULT: no

QUERY: In this assay, the call recorded for `COc1c(Cl)cc(Cl)cc1Cl` was what?
RESULT: no

QUERY: In this assay, the call recorded for `CCOC(=O)c1cnc2cc(Cl)c(F)cc2c1Nc1cccc(NS(C)(=O)=O)c1` was what?
RESULT: no

QUERY: In this assay, the call recorded for O=[N+]([O-])c1cccc(C2CC(c3ccccc3)=Nc3ccccc3S2)c1 (stereo unspecified) was what?
RESULT: no

QUERY: In this assay, the call recorded for CC(=O)OCC1OC(OC2=C(CC=C(Cl)Cl)C(=O)c3ccccc3C2=O)C(OC(C)=O)C(OC(C)=O)C1OC(C)=O (stereo unspecified) was what?
RESULT: no

QUERY: In this assay, the call recorded for `Nc1ccc(Nc2nccc(-c3ccc4ccccc4c3)n2)cc1` was what?
RESULT: no

QUERY: In this assay, the call recorded for `CCN(CC)c1ccc(/C=C/C2=[N+](C)c3ccccc3C2(C)C)cc1` was what?
RESULT: yes

QUERY: In this assay, the call recorded for `C/C(=C(/c1ccc(O)cc1)c1ccc(OCCN2CCCC2)cc1)c1ccccc1` was what?
RESULT: no

QUERY: In this assay, the call recorded for `CSc1[nH]c2ncnc(N)c2c1C#N` was what?
RESULT: no

QUERY: In this assay, the call recorded for `CC[C@H](Nc1ncnc(N)c1C(N)=O)c1nc2cccc(NCc3ccc(C(=O)NO)cc3)c2c(=O)n1-c1ccccc1` was what?
RESULT: no

QUERY: In this assay, the call recorded for CS(=O)(CCCCN=C=S)=NC(=O)c1c(F)c(F)c(F)c(F)c1F (stereo unspecified) was what?
RESULT: no

QUERY: In this assay, the call recorded for O=C1CC(c2nc3ccccc3s2)CN1C1CCCCC1 (stereo unspecified) was what?
RESULT: no

QUERY: In this assay, the call recorded for `CCCCNc1ccc2c3c1cccc3c(=O)n1c3ccccc3nc21` was what?
RESULT: no

QUERY: In this assay, the call recorded for `Oc1ccccc1N=Cc1c(O)ccc2ccccc12` was what?
RESULT: no

QUERY: In this assay, the call recorded for `Cc1cccc(NC(=O)c2sc3nc4c(cc3c2N)C(=O)CCC4)c1` was what?
RESULT: no

QUERY: In this assay, the call recorded for CCC(C)[C@@H]1NC(=O)[C@@H]2CCCN2C(=O)[C@H](Cc2ccccc2)NC(=O)[C@@H]2CCCN2C(=O)[C@H](Cc2ccccc2)NC(=O)[C@@H]2CCCN2C(=O)[C@H](Cc2ccccc2)NC1=O (stereo partly specified) was what?
RESULT: no

QUERY: In this assay, the call recorded for `CCCCCCCCCCCCCC1=NCCN1CCO` was what?
RESULT: no

QUERY: In this assay, the call recorded for `CN1CCN(Cc2ccc(NC(=O)c3[nH]ncc3Nc3ncnc4[nH]ccc34)cc2)CC1` was what?
RESULT: yes

QUERY: In this assay, the call recorded for `Nc1c(C(=O)Nc2cccc3c2OCCO3)sc2nc3c(cc12)CN(Cc1ccccc1)CC3` was what?
RESULT: no

QUERY: In this assay, the call recorded for `O=C1CCc2c(sc3[nH]c(=S)n(Cc4ccccc4)c(=O)c23)C1` was what?
RESULT: no
